meta.source: paper PMC9328652

# run.description: Pharmacokinetics in P. falciparum infected and uninfected humanized mice
# protocol.conditions: NODscidβ2m^−/−, mouse, whole blood, po, 12.5 mg/kg, C max, infected (I) humanized mice, blood, oral 12.5 mg·kg^−1, mean (SD)
quantity.kind: Cmax (ng/mL)
I only need the number, in ng/mL, no unit after it.

Study these solved cases before continuing.
CC[C@H]1OC(=O)[C@H](C)[C@@H](O)[C@H](C)[C@@H](O[C@@H]2O[C@H](C)C[C@H](N(C)C)[C@H]2OCCCNc2ccnc3ccccc23)[C@](C)(O)C[C@@H](C)CN[C@H](C)[C@@H](O)[C@]1(C)O ... 348
CC[C@H]1OC(=O)[C@H](C)[C@@H](O[C@H]2C[C@@](C)(OC)[C@@H](O)[C@H](C)O2)[C@H](C)[C@@H](O[C@@H]2O[C@H](C)C[C@H](N(C)C)[C@H]2O)[C@](C)(O)C[C@@H](C)CN(C)[C@H](C)[C@@H](O)[C@]1(C)O [Azithromycin, reference compound] ... 344

Kindly consider the entry below.
Enquiry: # Cmax lookup, item CC[C@H]1OC(=O)[C@H](C)[C@@H](O[C@H]2C[C@@](C)(OC)[C@@H](O)[C@H](C)O2)[C@H](C)[C@@H](O[C@@H]2O[C@H](C)C[C@H](N(C)C)[C@H]2O)[C@](C)(O)C[C@@H](C)CN(CCCNc2ccnc3cc(Cl)ccc23)[C@H](C)[C@@H](O)[C@]1(C)O
Return: 775

###

# run.description: Pharmacokinetic studies in rats
# Assay type: in vivo, Sprague–Dawley rats
# protocol.conditions: male, Sprague-Dawley, whole blood, iv; Rat, i.v. 2 mg·kg^−1, mean (SD); read-out: Vss
# Description: For the in vivo pharmacokinetic study, compound 1 was dosed i.v. at 5 mg·kg^−1 (5 ml·kg^−1 dosing volume) and p.o. at a dose of 25 mg·kg^−1 (10 ml·kg^−1) to male Sprague–Dawley rats (Charles River, France), weighing ~350 g. Compounds 2 and 3 were dosed i.v. at 2 mg·kg^−1 (5 ml·kg^−1 dosing volume) and p.o. at a dose of 10 mg·kg^−1 (10 ml·kg^−1). Rats were fasted for 6–12 h (overnight fasting) prior oral administration. […]
quantity.kind: Vd (L/kg)
The reply should contain only the number, in L/kg.

Enquiry: So what does the record say about Vd for CC[C@H]1OC(=O)[C@H](C)[C@@H](O)[C@H](C)[C@@H](O[C@@H]2O[C@H](C)C[C@H](N(C)C)[C@H]2OCCCNc2ccnc3ccccc23)[C@](C)(O)C[C@@H](C)CN[C@H](C)[C@@H](O)[C@]1(C)O [Compound 3] ?
Return: 6.3

###

# run.description: Pharmacokinetic studies in CD-1 mice
# protocol.conditions: Swiss albino CD-1, mouse, whole blood, intravenous, 12.5 mg/kg
quantity.kind: half-life
Answer as a quantity: numeral, then unit.

Here are 2 compounds together with their reported answers.
CC[C@H]1OC(=O)[C@H](C)[C@@H](O[C@H]2C[C@@](C)(OC)[C@@H](O)[C@H](C)O2)[C@H](C)[C@@H](O[C@@H]2O[C@H](C)C[C@H](N(C)C)[C@H]2O)[C@](C)(O)C[C@@H](C)CN(CCCNc2ccnc3cc(Cl)ccc23)[C@H](C)[C@@H](O)[C@]1(C)O ... 28.2 h
CC[C@H]1OC(=O)[C@H](C)[C@@H](O)[C@H](C)[C@@H](O[C@@H]2O[C@H](C)C[C@H](N(C)C)[C@H]2OCCCNc2ccnc3ccccc23)[C@](C)(O)C[C@@H](C)CN[C@H](C)[C@@H](O)[C@]1(C)O ... 15.6 h

Enquiry: // lookup half-life for CC[C@H]1OC(=O)[C@H](C)[C@@H](O[C@H]2C[C@@](C)(OC)[C@@H](O)[C@H](C)O2)[C@H](C)[C@@H](O[C@@H]2O[C@H](C)C[C@H](N(C)C(C)=O)[C@H]2O)[C@](C)(O)C[C@@H](C)CN(CCCNC(=O)Nc2ccc3ccccc3c2)[C@H](C)[C@@H](O)[C@]1(C)O
Return: 3.76 h

###

# run.description: Pharmacokinetics in P. falciparum infected and uninfected humanized mice
# protocol.conditions: NODscidβ2m^−/−, mouse, whole blood, po, 12.5 mg/kg, t max, uninfected (U) humanized mice, oral 12.5 mg·kg^−1, mean (SD)
Attribute: Tmax
Respond with the bare value in h.

Before answering, review these 2 worked examples.
CC[C@H]1OC(=O)[C@H](C)[C@@H](O)[C@H](C)[C@@H](O[C@@H]2O[C@H](C)C[C@H](N(C)C)[C@H]2OCCCNc2ccnc3ccccc23)[C@](C)(O)C[C@@H](C)CN[C@H](C)[C@@H](O)[C@]1(C)O ... 2.2
CC[C@H]1OC(=O)[C@H](C)[C@@H](O[C@H]2C[C@@](C)(OC)[C@@H](O)[C@H](C)O2)[C@H](C)[C@@H](O[C@@H]2O[C@H](C)C[C@H](N(C)C)[C@H]2O)[C@](C)(O)C[C@@H](C)CN(CCCNc2ccnc3cc(Cl)ccc23)[C@H](C)[C@@H](O)[C@]1(C)O ... 0.75

Enquiry: I'd like to know its Tmax. The compound in question is CC[C@H]1OC(=O)[C@H](C)[C@@H](O[C@H]2C[C@@](C)(OC)[C@@H](O)[C@H](C)O2)[C@H](C)[C@@H](O[C@@H]2O[C@H](C)C[C@H](N(C)C)[C@H]2O)[C@](C)(O)C[C@@H](C)CN(C)[C@H](C)[C@@H](O)[C@]1(C)O [Azithromycin, reference compound]
Return: 1.67
